- TEST CONDITIONS: in isobutanol, 288.15 K
PARAMETER MEASURED: solubility (mole fraction)
Write the number on its own, no unit after it.

Ask: Fill in the blank: the reported solubility (mole fraction) of Cc1cccc(N(C)C(=S)Oc2ccc3ccccc3c2)c1 is ____.
Result: 0.000734

* * *

- TEST CONDITIONS: in isobutanol, 308.15 K
PARAMETER MEASURED: solubility (mole fraction)
Write the number on its own, no unit after it.

Ask: Fill in the blank: the reported solubility (mole fraction) of Cc1cccc(N(C)C(=S)Oc2ccc3ccccc3c2)c1 is ____.
Result: 0.0025

* * *

- TEST CONDITIONS: in n-octanol, 293.15 K
PARAMETER MEASURED: solubility (mole fraction)
Write the number on its own, no unit after it.

Ask: Fill in the blank: the reported solubility (mole fraction) of Cc1cccc(N(C)C(=S)Oc2ccc3ccccc3c2)c1 is ____.
Result: 0.00251

* * *

- TEST CONDITIONS: in propylene glycol, 318.15 K
PARAMETER MEASURED: solubility (mole fraction)
Write the number on its own, no unit after it.

Ask: Fill in the blank: the reported solubility (mole fraction) of Cc1cccc(N(C)C(=S)Oc2ccc3ccccc3c2)c1 is ____.
Result: 0.000785

* * *

- TEST CONDITIONS: in ethanol, 323.15 K
PARAMETER MEASURED: solubility (mole fraction)
Write the number on its own, no unit after it.

Ask: Fill in the blank: the reported solubility (mole fraction) of Cc1cccc(N(C)C(=S)Oc2ccc3ccccc3c2)c1 is ____.
Result: 0.00365

* * *

- TEST CONDITIONS: in isobutanol, 313.15 K
PARAMETER MEASURED: solubility (mole fraction)
Write the number on its own, no unit after it.

Ask: Fill in the blank: the reported solubility (mole fraction) of Cc1cccc(N(C)C(=S)Oc2ccc3ccccc3c2)c1 is ____.
Result: 0.00316

* * *

- TEST CONDITIONS: in n-propanol, 298.15 K
PARAMETER MEASURED: solubility (mole fraction)

Ask: Fill in the blank: the reported solubility (mole fraction) of Cc1cccc(N(C)C(=S)Oc2ccc3ccccc3c2)c1 is ____.
Result: 0.00171

* * *

- TEST CONDITIONS: in methanol, 313.15 K
PARAMETER MEASURED: solubility (mole fraction)
Write the number on its own, no unit after it.

Ask: Fill in the blank: the reported solubility (mole fraction) of Cc1cccc(N(C)C(=S)Oc2ccc3ccccc3c2)c1 is ____.
Result: 0.00149

* * *

- TEST CONDITIONS: in ethylene glycol, 288.15 K
PARAMETER MEASURED: solubility (mole fraction)
Write the number on its own, no unit after it.

Ask: Fill in the blank: the reported solubility (mole fraction) of Cc1cccc(N(C)C(=S)Oc2ccc3ccccc3c2)c1 is ____.
Result: 5.88e-05

* * *

- TEST CONDITIONS: in isobutanol, 318.15 K
PARAMETER MEASURED: solubility (mole fraction)
Write the number on its own, no unit after it.

Ask: Fill in the blank: the reported solubility (mole fraction) of Cc1cccc(N(C)C(=S)Oc2ccc3ccccc3c2)c1 is ____.
Result: 0.00409

* * *

- TEST CONDITIONS: in methanol, 328.15 K
PARAMETER MEASURED: solubility (mole fraction)
Write the number on its own, no unit after it.

Ask: Fill in the blank: the reported solubility (mole fraction) of Cc1cccc(N(C)C(=S)Oc2ccc3ccccc3c2)c1 is ____.
Result: 0.00267

* * *

- TEST CONDITIONS: in n-octanol, 288.15 K
PARAMETER MEASURED: solubility (mole fraction)

Ask: Fill in the blank: the reported solubility (mole fraction) of Cc1cccc(N(C)C(=S)Oc2ccc3ccccc3c2)c1 is ____.
Result: 0.00189

* * *

- TEST CONDITIONS: in propylene glycol, 328.15 K
PARAMETER MEASURED: solubility (mole fraction)
Write the number on its own, no unit after it.

Ask: Fill in the blank: the reported solubility (mole fraction) of Cc1cccc(N(C)C(=S)Oc2ccc3ccccc3c2)c1 is ____.
Result: 0.00125

* * *

- TEST CONDITIONS: in acetic acid, 288.15 K
PARAMETER MEASURED: solubility (mole fraction)
Write the number on its own, no unit after it.

Ask: Fill in the blank: the reported solubility (mole fraction) of Cc1cccc(N(C)C(=S)Oc2ccc3ccccc3c2)c1 is ____.
Result: 0.00249

* * *

- TEST CONDITIONS: in ethylene glycol, 318.15 K
PARAMETER MEASURED: solubility (mole fraction)
Write the number on its own, no unit after it.

Ask: Fill in the blank: the reported solubility (mole fraction) of Cc1cccc(N(C)C(=S)Oc2ccc3ccccc3c2)c1 is ____.
Result: 0.000201

* * *

- TEST CONDITIONS: in isobutanol, 293.15 K
PARAMETER MEASURED: solubility (mole fraction)
Write the number on its own, no unit after it.

Ask: Fill in the blank: the reported solubility (mole fraction) of Cc1cccc(N(C)C(=S)Oc2ccc3ccccc3c2)c1 is ____.
Result: 0.000933

* * *

- TEST CONDITIONS: in acetic acid, 303.15 K
PARAMETER MEASURED: solubility (mole fraction)
Write the number on its own, no unit after it.

Ask: Fill in the blank: the reported solubility (mole fraction) of Cc1cccc(N(C)C(=S)Oc2ccc3ccccc3c2)c1 is ____.
Result: 0.0045

* * *

- TEST CONDITIONS: in acetic acid, 298.15 K
PARAMETER MEASURED: solubility (mole fraction)

Ask: Fill in the blank: the reported solubility (mole fraction) of Cc1cccc(N(C)C(=S)Oc2ccc3ccccc3c2)c1 is ____.
Result: 0.00359

* * *

- TEST CONDITIONS: in ethanol, 288.15 K
PARAMETER MEASURED: solubility (mole fraction)
Write the number on its own, no unit after it.

Ask: Fill in the blank: the reported solubility (mole fraction) of Cc1cccc(N(C)C(=S)Oc2ccc3ccccc3c2)c1 is ____.
Result: 0.000765

* * *

- TEST CONDITIONS: in acetic acid, 318.15 K
PARAMETER MEASURED: solubility (mole fraction)

Ask: Fill in the blank: the reported solubility (mole fraction) of Cc1cccc(N(C)C(=S)Oc2ccc3ccccc3c2)c1 is ____.
Result: 0.00993

* * *

- TEST CONDITIONS: in ethylene glycol, 298.15 K
PARAMETER MEASURED: solubility (mole fraction)
Write the number on its own, no unit after it.

Ask: Fill in the blank: the reported solubility (mole fraction) of Cc1cccc(N(C)C(=S)Oc2ccc3ccccc3c2)c1 is ____.
Result: 8.76e-05

* * *

- TEST CONDITIONS: in ethylene glycol, 283.15 K
PARAMETER MEASURED: solubility (mole fraction)
Write the number on its own, no unit after it.

Ask: Fill in the blank: the reported solubility (mole fraction) of Cc1cccc(N(C)C(=S)Oc2ccc3ccccc3c2)c1 is ____.
Result: 5.01e-05

* * *

- TEST CONDITIONS: in n-butanol, 308.15 K
PARAMETER MEASURED: solubility (mole fraction)
Write the number on its own, no unit after it.

Ask: Fill in the blank: the reported solubility (mole fraction) of Cc1cccc(N(C)C(=S)Oc2ccc3ccccc3c2)c1 is ____.
Result: 0.00345

* * *

- TEST CONDITIONS: in methanol, 308.15 K
PARAMETER MEASURED: solubility (mole fraction)
Write the number on its own, no unit after it.

Ask: Fill in the blank: the reported solubility (mole fraction) of Cc1cccc(N(C)C(=S)Oc2ccc3ccccc3c2)c1 is ____.
Result: 0.00119

* * *

- TEST CONDITIONS: in isopropanol, 328.15 K
PARAMETER MEASURED: solubility (mole fraction)

Ask: Fill in the blank: the reported solubility (mole fraction) of Cc1cccc(N(C)C(=S)Oc2ccc3ccccc3c2)c1 is ____.
Result: 0.00437

* * *

- TEST CONDITIONS: in ethanol, 303.15 K
PARAMETER MEASURED: solubility (mole fraction)
Write the number on its own, no unit after it.

Ask: Fill in the blank: the reported solubility (mole fraction) of Cc1cccc(N(C)C(=S)Oc2ccc3ccccc3c2)c1 is ____.
Result: 0.00161

* * *

- TEST CONDITIONS: in ethylene glycol, 323.15 K
PARAMETER MEASURED: solubility (mole fraction)
Write the number on its own, no unit after it.

Ask: Fill in the blank: the reported solubility (mole fraction) of Cc1cccc(N(C)C(=S)Oc2ccc3ccccc3c2)c1 is ____.
Result: 0.000258

* * *

- TEST CONDITIONS: in n-octanol, 308.15 K
PARAMETER MEASURED: solubility (mole fraction)
Write the number on its own, no unit after it.

Ask: Fill in the blank: the reported solubility (mole fraction) of Cc1cccc(N(C)C(=S)Oc2ccc3ccccc3c2)c1 is ____.
Result: 0.00526
